test system: Escherichia coli TOP10; test: shrunken log2 fold change of peptide-encoding DNA abundance (4.5 h post-induction vs induction); higher = less antimicrobial activity (less host growth inhibition); settings: time post-induction: 4.5 h; library: site-saturation at positions 5, 18, 19, 20
Hi, to clarify the labels: Y covers shrunken log2 fold change from 0.04 upward, N covers anything below 0.04.

Answered cases to consult:
>  <sequence.input>
RRIRERPPRLPRPRPRPDNIPRP

>  <cat>
N

$$$$
>  <sequence.input>
RRIRHRPPRLPRPRPRPAGHPRP

>  <cat>
N

$$$$
>  <sequence.input>
RRIRQRPPRLPRPRPRPSSEPRP

>  <cat>
Y

$$$$
>  <sequence.input>
RRIRVRPPRLPRPRPRPNCAPRP

>  <cat>
Y

$$$$
>  <sequence.input>
RRIRNRPPRLPRPRPRPDQLPRP

>  <cat>
Y

$$$$

// query shrunken log2 fold change >= 0.04 for RRIRPRPPRLPRPRPRPQHEPRP ?
// result N

// query Consider next the sequence RRIRHRPPRLPRPRPRPLKYPRP in the same way.
// result N

// query Consider next the sequence RRIRLRPPRLPRPRPRPIEGPRP in the same way.
// result N

// query Consider next the sequence RRIRARPPRLPRPRPRPKFHPRP in the same way.
// result Y

// query Consider next the sequence RRIRSRPPRLPRPRPRPWNLPRP in the same way.
// result N

// query Consider next the sequence RRIRRRPPRLPRPRPRPSKEPRP in the same way.
// result Y

// query Consider next the sequence RRIRIRPPRLPRPRPRPEYIPRP in the same way.
// result N

// query Consider next the sequence RRIRLRPPRLPRPRPRPPKKPRP in the same way.
// result Y

// query Consider next the sequence RRIRERPPRLPRPRPRPVCDPRP in the same way.
// result Y

###

test system: Escherichia coli TOP10; assay: shrunken log2 fold change of peptide-encoding DNA abundance (4.5 h post-induction vs induction); higher = less antimicrobial activity (less host growth inhibition); conditions: time post-induction: 4.5 h; library: site-saturation at positions 5, 18, 19, 20;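 also: peptides expressed intracellularly from a pBAD plasmid library in pooled LB shake-flask culture, induced with 0.3% L-arabinose, DNA abundance read by NGS, three biological replicates, DESeq2 with apeglm shrinkage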
# shrunken log2 fold change listing for each entry below

>  <sequence.input>
RRIRSRPPRLPRPRPRPCTKPRP

>  <shrunken log2 fold change>
-0.581

$$$$
>  <sequence.input>
RRIRPRPPRLPRPRPRPFGGPRP

>  <shrunken log2 fold change>
0.0321

$$$$
>  <sequence.input>
RRIRGRPPRLPRPRPRPCDWPRP

>  <shrunken log2 fold change>
0.519

$$$$
>  <sequence.input>
RRIRVRPPRLPRPRPRPHAFPRP

>  <shrunken log2 fold change>
0.0978

$$$$
>  <sequence.input>
RRIRRRPPRLPRPRPRPHFLPRP

>  <shrunken log2 fold change>
-0.196

$$$$
>  <sequence.input>
RRIRGRPPRLPRPRPRPWMLPRP

>  <shrunken log2 fold change>
0.0888

$$$$
>  <sequence.input>
RRIRARPPRLPRPRPRPTVWPRP

>  <shrunken log2 fold change>
0.552

$$$$
>  <sequence.input>
RRIRRRPPRLPRPRPRPQWRPRP

>  <shrunken log2 fold change>
0.364

$$$$

// query Entry under review: RRIRLRPPRLPRPRPRPNCQPRP . Reported shrunken log2 fold change?
// result 0.0269

// query Consider next the sequence RRIRHRPPRLPRPRPRPYCDPRP in the same way.
// result -0.313

// query Consider next the sequence RRIRDRPPRLPRPRPRPHWAPRP in the same way.
// result -0.00226

// query Consider next the sequence RRIRKRPPRLPRPRPRPRVFPRP in the same way.
// result 0.701

// query Consider next the sequence RRIRCRPPRLPRPRPRPFVCPRP in the same way.
// result -0.242
